method.description: Test Procedure 2: panel test rating thiol malodor of permanent shaping premix mixed with malodor suppressant system
test.conditions: scale 0 to 5 (0=no thiol smell, 5=harsh thiol smell); 5 panelists; premix + 0.7 wt.-% suppressant system; same rating immediately and 25 min after mixing
quantity.name: Odor (thiol malodor rating)
One number for each entry.

Here is how some molecules turned out for Odor (thiol malodor rating).
Task: State its Odor (thiol malodor rating): O=C1CCCCCCCCC/C=C/CCCO1 [S2, Habanolide]
Result: 4

Task: State its Odor (thiol malodor rating): O=C(OCc1ccccc1)c1ccccc1 [S6, Benzyl benzoate]
Result: 3

Task: State its Odor (thiol malodor rating): CCCCCCCCCCCCCC(=O)OC(C)C [S1, isopropylmyristate]
Result: 3

Lab note: next molecule to report on.
Task: State its Odor (thiol malodor rating): CC1COC(C)(c2ccc3c(c2)C(C)(C)CCC3(C)C)O1 (centres unmarked)
Result: 3

---

method.description: distribution coefficient log P (octanol/water)
Assay type: physicochemical
test.conditions: octanol/water; raw material of malodor suppressant system
quantity.name: logP
One number for each entry.

Task: State its logP: CCCCCCCCCCCCCC(=O)OC(C)C [S1, isopropylmyristate]
Result: 7.41

---

method.description: distribution coefficient log P (octanol/water)
Assay type: physicochemical
test.conditions: raw material of malodor suppressant system
quantity.name: logP
One number for each entry.

Task: State its logP: CC1COCc2cc3c(cc21)C(C)(C)C(C)C3(C)C (stereo not shown) [S3, Galaxolide]
Result: 5.93

---

method.description: density of malodor suppressant
Format: physicochemical
test.conditions: 23° C., 1.013 bar
quantity.name: density (g/mL)
One number for each entry, in g/mL.

Here is how some compounds turned out for density.
Task: State its density: CCCCCCCCCCCCCC(=O)OC(C)C [S1, isopropylmyristate]
Result: 0.864

Task: State its density: CC1COC(C)(c2ccc3c(c2)C(C)(C)CCC3(C)C)O1 (centres unmarked) [S5, Okoumal]
Result: 0.971

Task: State its density: O=C1CCCCCCCCC/C=C/CCCO1 [S2, Habanolide]
Result: 0.901

Task: State its density: CC1COCc2cc3c(cc21)C(C)(C)C(C)C3(C)C (centres unmarked) [S3, Galaxolide]
Result: 0.946

***
Task: State its density: O=C(OCc1ccccc1)c1ccccc1 [S6, Benzyl benzoate]
Result: 1.129
